Target: T1, human α-CGRP (Homo sapiens, UniProt P06881)
T1 construct: 1-37 (WT); purchased; host or cells: synthetic peptide
T1 sequence (P06881 83-119 limits assumed): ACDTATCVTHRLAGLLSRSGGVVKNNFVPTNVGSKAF
Assay: Biacore affinity of antibody G1 Fab and variants to human α-CGRP
Assay type: binding
Conditions: 37° C., Fab, screening mode unless underlined
Reported α-human koff values for a set of molecules
Reported Endpoint: α-human koff (s⁻¹)

| Molecule | Reported Endpoint | Value Reported |
| --- | --- | --- |
| M51: G1 variant: L1 R28N; L2 L56I; H2 E54K,A57G; HC-FW3 L99T,A100V (antibody, V domains shown) VH: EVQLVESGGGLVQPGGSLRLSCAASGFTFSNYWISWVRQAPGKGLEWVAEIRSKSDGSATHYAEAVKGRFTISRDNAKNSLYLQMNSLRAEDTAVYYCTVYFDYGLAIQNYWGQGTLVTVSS VL: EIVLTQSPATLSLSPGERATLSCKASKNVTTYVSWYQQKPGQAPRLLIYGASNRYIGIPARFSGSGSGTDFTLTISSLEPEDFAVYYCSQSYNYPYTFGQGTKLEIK | α-human koff | 0.000131 |
| M75: G1 variant: L1 R28N,T30G; L2 L56S; H2 E54K,A57V; HC-FW3 L99T,A100V (antibody, V domains shown) VH: EVQLVESGGGLVQPGGSLRLSCAASGFTFSNYWISWVRQAPGKGLEWVAEIRSKSDVSATHYAEAVKGRFTISRDNAKNSLYLQMNSLRAEDTAVYYCTVYFDYGLAIQNYWGQGTLVTVSS VL: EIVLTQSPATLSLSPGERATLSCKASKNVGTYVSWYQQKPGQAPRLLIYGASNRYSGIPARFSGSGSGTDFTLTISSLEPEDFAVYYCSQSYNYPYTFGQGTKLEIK | α-human koff | 0.00116 |
| M21: G1 variant: L1 R28W; HC-FW3 L99S (antibody, V domains shown) VH: EVQLVESGGGLVQPGGSLRLSCAASGFTFSNYWISWVRQAPGKGLEWVAEIRSESDASATHYAEAVKGRFTISRDNAKNSLYLQMNSLRAEDTAVYYCSAYFDYGLAIQNYWGQGTLVTVSS VL: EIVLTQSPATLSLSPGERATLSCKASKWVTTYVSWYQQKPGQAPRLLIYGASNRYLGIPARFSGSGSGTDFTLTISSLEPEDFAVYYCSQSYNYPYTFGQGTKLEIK | α-human koff | 0.000142 |
| M33: G1 variant: L1 R28N,T30G; H2 E54K,A57N,S58G; HC-FW3 L99T,A100V (antibody, V domains shown) VH: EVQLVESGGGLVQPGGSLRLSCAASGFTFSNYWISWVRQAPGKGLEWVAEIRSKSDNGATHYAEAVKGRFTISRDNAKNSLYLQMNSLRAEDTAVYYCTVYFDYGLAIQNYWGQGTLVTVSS VL: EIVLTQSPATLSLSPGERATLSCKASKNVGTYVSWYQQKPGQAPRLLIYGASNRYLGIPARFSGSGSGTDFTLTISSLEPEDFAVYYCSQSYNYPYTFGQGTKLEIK | α-human koff | 0.00075 |
| M61: G1 variant: L1 R28N,T30G; L2 A51H; H2 E54Q,A57N,H61F; HC-FW3 L99T,A100V (antibody, V domains shown) VH: EVQLVESGGGLVQPGGSLRLSCAASGFTFSNYWISWVRQAPGKGLEWVAEIRSQSDNSATFYAEAVKGRFTISRDNAKNSLYLQMNSLRAEDTAVYYCTVYFDYGLAIQNYWGQGTLVTVSS VL: EIVLTQSPATLSLSPGERATLSCKASKNVGTYVSWYQQKPGQAPRLLIYGHSNRYLGIPARFSGSGSGTDFTLTISSLEPEDFAVYYCSQSYNYPYTFGQGTKLEIK | α-human koff | 0.000459 |
